Catalogue of kon values
TARGET_OF_ASSAY: T1, biotinylated CRH (human and mouse, not fully specified; biotinylated, position not stated)
T1 construct: also called Biotin-CRH; biotin-labeled CRH
T1 peptide: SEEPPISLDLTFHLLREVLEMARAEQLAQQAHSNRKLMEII
TEST_SUMMARY: Octet BLI, biotinylated CRH on SA sensor
The reply should contain only the number, in M⁻¹ s⁻¹.

BINDER: PR302334-26 (antibody, human IgG1, kappa, V domains shown, Humanized variant of PR302334) VH: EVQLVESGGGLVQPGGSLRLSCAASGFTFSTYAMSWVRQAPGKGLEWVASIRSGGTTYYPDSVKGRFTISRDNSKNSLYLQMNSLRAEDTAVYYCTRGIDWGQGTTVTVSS VL: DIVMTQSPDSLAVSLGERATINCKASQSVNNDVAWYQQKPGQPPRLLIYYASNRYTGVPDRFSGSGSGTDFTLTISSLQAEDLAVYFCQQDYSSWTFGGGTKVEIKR
kon [M⁻¹ s⁻¹]: 329000
--
BINDER: PR302309-11 (antibody, human IgG1, kappa, V domains shown, Humanized variant of PR302309) VH: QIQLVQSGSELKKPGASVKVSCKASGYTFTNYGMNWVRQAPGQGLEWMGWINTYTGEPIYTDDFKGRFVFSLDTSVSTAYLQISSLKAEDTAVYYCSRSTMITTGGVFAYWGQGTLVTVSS VL: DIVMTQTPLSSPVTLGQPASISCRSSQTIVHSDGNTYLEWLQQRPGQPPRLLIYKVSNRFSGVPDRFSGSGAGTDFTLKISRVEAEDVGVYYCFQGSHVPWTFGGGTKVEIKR
kon [M⁻¹ s⁻¹]: 154000

The reported kon of the binder PR302309 (antibody, human IgG1, kappa, V domains shown, Series 7; mouse variable domains with human IgG1 wildtype Fc) VH: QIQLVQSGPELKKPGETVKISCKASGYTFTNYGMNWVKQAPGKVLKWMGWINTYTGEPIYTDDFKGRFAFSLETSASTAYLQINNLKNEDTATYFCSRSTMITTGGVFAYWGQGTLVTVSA VL: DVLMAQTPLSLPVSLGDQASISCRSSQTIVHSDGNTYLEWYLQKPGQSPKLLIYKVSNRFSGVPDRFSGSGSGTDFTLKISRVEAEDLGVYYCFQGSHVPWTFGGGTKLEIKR was 263000
